Test system: SNB-75 CNS
measurement_protocol: NCI-60 one-dose screen, 48 h
experimental_parameters: 10 µM
About 83,000 compounds went through this panel and 20% of them were active in at least one assay; those are over-represented in the sample as a whole. Active and inactive are the calls of the source. The calls were made as follows: active = growth percent below 10; inactive = the rest.
Hi! Could you answer with just one of these? active, inactive

Per the records of this test, what outcome belongs to `NC(=O)SCC(=O)Nc1ccc(S(N)(=O)=O)cc1` ?
inactive

Per the records of this test, what outcome belongs to `O=C(Nc1ccc(Cl)c(Cl)c1)Nc1c(Oc2ccc(Cl)c(Cl)c2)ccc(Cl)c1S(=O)(=O)O` ?
active

Per the records of this test, what outcome belongs to N#CC1=C(Nc2ccccc2Cl)SC(c2ccccc2O)NC1=O (stereo not given) ?
inactive

Per the records of this test, what outcome belongs to `COc1ccc(NC(=O)CSc2nc3ccccc3c(=O)n2CCc2ccccc2)cc1` ?
inactive

Per the records of this test, what outcome belongs to `CN(C)c1ccc(Cc2ccc(N(C)C)cc2Cl)c(Cl)c1` ?
inactive

Per the records of this test, what outcome belongs to `COC(=O)[C@@H]1[C@H](O)[C@H](C)[C@H](O)[C@@](C)(O)/C=C\C=C(C)C(=O)Nc2c(C)c(OC(C)=O)c3c(c2O)C(=O)C(C)=C2OCOC(=C23)C(C)=C[C@@](C)(O)[C@H](O)[C@@H](C)[C@H]1OC(C)=O` ?
inactive

Per the records of this test, what outcome belongs to `CCOC(=O)c1ccoc1` ?
inactive

Per the records of this test, what outcome belongs to `COc1ccc(-c2cc(-c3cccc(NS(C)(=O)=O)c3)nc(N)c2C#N)cc1` ?
active

Per the records of this test, what outcome belongs to `COc1ccc(-c2cc(/C=C/C(=O)c3cc(OC)c(OC)c(OC)c3)[nH]n2)cc1OC` ?
inactive

Per the records of this test, what outcome belongs to `O=C(Nc1ccncc1)C(=O)c1cn(S(=O)(=O)c2cccc(Cl)c2)c2ccccc12` ?
inactive

Per the records of this test, what outcome belongs to `Nc1nc(N=Nc2ccc(O)cc2)cc(=O)[nH]1` ?
inactive

Per the records of this test, what outcome belongs to `N=C(N)c1ccc(-c2ccc(-c3ccco3)o2)cc1` ?
inactive

Per the records of this test, what outcome belongs to COc1cccc(C2C3=C(COC3=O)N(CCO)c3cc(OC)ccc32)c1 (stereo not given) ?
inactive

Per the records of this test, what outcome belongs to `O=C(N/N=C/c1cc2ccccc2c2ccccc12)c1cc(O)c(O)c(O)c1` ?
inactive

Per the records of this test, what outcome belongs to O=C1ON=[N+](c2ccc(Cc3ccc([N+]4=NOC(=O)C4CN4CCOCC4)cc3)cc2)C1CN1CCOCC1 (stereo not given) ?
inactive

Per the records of this test, what outcome belongs to CCCCC(CCCCCC(CCCC)NCc1ccc2c(c1)OCO2)NCc1ccc2c(c1)OCO2 (stereo not given) ?
active

Per the records of this test, what outcome belongs to CCCCCCCCCCCCC1C/C=C\CCCC(=O)O1 (stereo not given) ?
inactive

Per the records of this test, what outcome belongs to `O=C(Nc1nc2ccc(F)cc2s1)c1cc(-c2ccc(F)cc2)n2nc(-c3ccccc3)cc2n1` ?
inactive

Per the records of this test, what outcome belongs to `O=C(Nc1cccc(-n2cc(-c3ccncc3)c(-c3ccc(O)c(Cl)c3)n2)c1)c1cccc(C(F)(F)F)c1` ?
inactive

Per the records of this test, what outcome belongs to `CN(C)CCS(=O)(=O)CCN(C)C` ?
inactive

Recorded values, source PubChem BioAssay (NCI).
